Source of measurements: paper PMC4156793

- MEASURED_TARGET: KIT (Homo sapiens)
- Sequence (P10721 26-976): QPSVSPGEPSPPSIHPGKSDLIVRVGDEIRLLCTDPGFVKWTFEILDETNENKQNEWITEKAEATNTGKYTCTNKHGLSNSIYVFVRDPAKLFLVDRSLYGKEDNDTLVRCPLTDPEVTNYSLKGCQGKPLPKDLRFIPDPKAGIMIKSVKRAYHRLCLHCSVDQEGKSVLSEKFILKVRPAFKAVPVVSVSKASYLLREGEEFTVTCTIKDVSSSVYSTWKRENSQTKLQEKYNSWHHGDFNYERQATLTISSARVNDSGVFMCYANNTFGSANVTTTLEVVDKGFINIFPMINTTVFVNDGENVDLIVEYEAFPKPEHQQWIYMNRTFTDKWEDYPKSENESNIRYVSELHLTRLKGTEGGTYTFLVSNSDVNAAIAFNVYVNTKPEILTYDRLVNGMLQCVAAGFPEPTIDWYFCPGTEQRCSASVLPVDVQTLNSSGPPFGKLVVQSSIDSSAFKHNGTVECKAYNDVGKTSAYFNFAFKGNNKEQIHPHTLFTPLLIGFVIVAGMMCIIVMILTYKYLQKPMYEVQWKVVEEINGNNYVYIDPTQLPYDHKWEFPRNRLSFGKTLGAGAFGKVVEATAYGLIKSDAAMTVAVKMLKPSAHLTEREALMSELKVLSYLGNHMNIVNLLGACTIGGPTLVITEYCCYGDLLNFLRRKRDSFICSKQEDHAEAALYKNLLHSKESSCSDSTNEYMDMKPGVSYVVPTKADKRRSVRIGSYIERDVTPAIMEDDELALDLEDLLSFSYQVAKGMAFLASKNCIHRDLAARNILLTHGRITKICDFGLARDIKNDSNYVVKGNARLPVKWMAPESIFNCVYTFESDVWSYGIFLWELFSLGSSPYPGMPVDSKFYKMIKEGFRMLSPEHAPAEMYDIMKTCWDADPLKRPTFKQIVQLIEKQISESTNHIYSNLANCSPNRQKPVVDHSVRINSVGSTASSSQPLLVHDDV
pKi: −log10 of the molar value.

# STRUCTURE_NOTATION, MEASURED_TARGET, pKi
records = [
    ("COc1cc2nccc(Oc3ccc(NC(=O)NC4CC4)c(Cl)c3)c2cc1C(N)=O", "KIT (Homo sapiens)", 7.96),
]

###

- Tested on: DU145 (Prostate)
- METHOD_SUMMARY: Tumor cell proliferation assay (MTT), DU145
- Type: cell-based
- TEST_PARAMETERS: Homo sapiens, DU-145, read-out: IC50 in vitro anti-proliferative activity
pIC50: −log10 of the molar value.
VALUE_KIND: pIC50

# STRUCTURE_NOTATION, NUMBER
records = [
    ("COc1cc2nccc(Oc3ccc(NC(=O)NC4CC4)c(Cl)c3)c2cc1C(N)=O", 4.51),
]
